Tested on: KM12 colon
Experiment: NCI-60 one-dose screen, 48 h (100 = growth as untreated, 0 = no growth, -100 = all killed)
Conditions: 10 µM
This is part of a sample that, as a whole, favours compounds with a hit. Of some 83,000 tested, about 20% had one in any assay.
Please respond with reported growth for every item in the list.
Answers are plain numbers, in %.

For orientation, consider the following solved cases.
1. CCN(CC)CCOc1nc2ccccc2c2c1-c1ccc(OC)cc1C2=O :: -45.2
2. Cc1nc2ccccc2c(N)c1-c1cc(C)c2c(C)nc3ccccc3c2n1 :: -83.2
3. Clc1cc2c(c(CSc3nc4ccccc4n4cccc34)c1)OCOC2 :: 88.4
4. Clc1ccc(-c2cn(-c3ccccc3)c(-c3ccccc3)n2)c(Cl)c1 :: -88
5. O=C(C[P+](c1ccccc1)(c1ccccc1)c1ccccc1)C[P+](c1ccccc1)(c1ccccc1)c1ccccc1 :: -75.5
6. c1ccc(CO[C@H]2CO[C@H]3[C@@H]2OC[C@H]3OCc2ccccc2)cc1 :: 103
7. Cc1ccc(CC#N)cc1C :: 94.7
8. COc1cc(CNc2ccccc2C(=O)N2CCN(C(=O)c3cc(-c4cc(OC)c(OC)c(OC)c4)n4nc(-c5ccccc5)cc4n3)CC2)cc(OC)c1OC :: 17.8

// each listed molecule needs a value for growth
1. C=C(Cl)[C@@](Cl)(CBr)CC[C@@H](Br)C(C)(C)Cl
2. CN(Cc1ccccc1)Cc1ccc([N+](=O)[O-])cc1I
3. CCN(CC)CCCOCCCNc1cc(OC)cc2cccnc12
4. Fc1cc(C(F)(F)F)ccc1-c1cncnc1NC1CCCCCC1

OUTPUT:
[-94.2, 93.2, 102, 107]

// each listed molecule needs a value for growth
1. Cc1cn(C2CCCCO2)c(=O)nc1NO (configuration not stated)
2. COc1ccc2c(c1)nc(N)c1c3cccnc3cn21
3. CC(=O)c1nc2ccccc2n1CCN1CCN(C)CC1
4. CCc1ccc2c(c1)N(CCO)C1=C(C(=O)OC1)C2c1ccccc1 (configuration not stated)
5. c1ccc(CSc2nnc3c4c5c(sc4nc(-c4cccnc4)n23)CCCCCC5)cc1
6. Clc1ccc(Nc2ccnc(NCCCNc3ccnc4cc(Cl)ccc34)n2)cc1
7. O=C1Nc2ccc(Cl)cc2/C1=C\c1c(-c2ccc(Cl)cc2)nc2sc(C3CC3)nn12
8. CCN1CCC2(CC1)OC(c1ccccc1)C(c1ccccc1)O2 (configuration not stated)

OUTPUT:
1. 102
2. 17.1
3. 14.1
4. 76.1
5. 34.4
6. -16.2
7. 82.7
8. 115

// each listed molecule needs a value for growth
1. CCCCCCN1C(=O)C2=C(c3ccc(Cl)cc3)Nc3c(c(C)nn3-c3ccccc3)C2c2ccccc21 (configuration not stated)
2. NC(=O)c1ccc(-c2cccc3c(=O)nc(N4CCOCC4)oc23)cc1
3. O=C1OCC2=C1C(c1cccc(Cl)c1)c1cc3c(cc1N2CCO)OCO3 (configuration not stated)
4. CO/N=C(/C(=O)NC1C(=O)N2C(C(=O)O)=C(COC(N)=O)CSC12)c1ccco1 (configuration not stated)
5. O=C(Nc1ccc(CN2CCc3nc4cc(O)c(O)cc4cc32)cc1)c1ccc(Cl)c(Cl)c1

OUTPUT:
[107, 97.6, 8.24, 113, 99.9]
